Target: T1, whirlin PDZ1-Hp (aa residues 137-246) (mouse, UniProt Q80VW5-1 137-246)
T1 construct: extra 7 aa at the N-terminus of all recombinant proteins of the study; whirlin, residues 137-246: PDZ1 with its hairpin extension Hp1; also called PDZ1 + Hp1; whirlin PDZ1-Hp1 fragment
T1 sequence: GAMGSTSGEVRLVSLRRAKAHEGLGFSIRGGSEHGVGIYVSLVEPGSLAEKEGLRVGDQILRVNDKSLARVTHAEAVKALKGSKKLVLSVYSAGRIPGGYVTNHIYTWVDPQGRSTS
Experiment: SPR; ProteOn XPR 36; N-terminally biotinylated peptides captured on a Neutravidin NLC sensor chip, whirlin fragments flowed as analytes at 20 μL/min for 2 min; 250 mM NaCl, 50 mM Tris pH 7.5, 0.5 mM TCEP; steady-state fit Req = (Rmax*C)/(Kd+C); mean of three experiments; Figure 4B shows the responses at 10 μM
Settings: both partners purified
No end group written: not given here. *: point of attachment. Biotin = O=C1N[C@H]2[C@H](CS[C@H]2CCCCC(=O)*)N1; TTDS = trioxatridecan-succinamic acid spacer
readout_name: Kd (µM)
Hi! Could you send only the number? It should be in µM, unit omitted.

Given the binder {Biotin-TTDS}-GIDVQPHSQSTSL (C-terminal 13 aa of protocadherin-15 isoform CD1, including the PBM; source: synthetic peptide (Eurogentec); not shown: biotin, N-terminal, kept) [PCDH15-CD1 C-terminal peptide (biotin-TTDS-GIDVQPHSQSTSL)] , what is its reported Kd?
29

Given the binder {Biotin-TTDS}-VIMESPLEITEL (C-terminal residues of cadherin-23, including the PBM; source: synthetic peptide (Eurogentec); not shown: biotin, N-terminal, kept) [CDH23 C-terminal peptide (biotin-TTDS-VIMESPLEITEL)] , what is its reported Kd?
64

Given the binder {Biotin-TTDS}-MGPWNSLHIPMTKL (C-terminal 14 aa of protocadherin-15 isoform CD3, including the PBM; source: synthetic peptide (Eurogentec); not shown: biotin, N-terminal, kept) [PCDH15-CD3 C-terminal peptide (biotin-TTDS-MGPWNSLHIPMTKL)] , what is its reported Kd?
11

Given the binder {Biotin-TTDS}-GANSEQYNTAL (C-terminal 11 aa of protocadherin-15 isoform CD2, including the PBM; source: synthetic peptide (Eurogentec); not shown: biotin, N-terminal, kept) [PCDH15-CD2 C-terminal peptide (biotin-TTDS-GANSEQYNTAL)] , what is its reported Kd?
33
